# SYSTEM UNDER TEST: cytochrome c oxidase (CcO) purified from bovine heart (Bos taurus, UniProt P00396+P68530)
# Construct: Cytochrome oxidase was isolated from bovine heart mitochondria; from tissue; host or cells: bovine heart mitochondria
# PROCEDURE DETAILS: Cytochrome oxidase activity assay (oxygen uptake, Clark-type electrode; ascorbate + TMPD + cytochrome c)
# Assay type: biochemical
# RUN CONDITIONS: true Ki extrapolated to zero dodecyl-maltoside (DM) from plot of Ki(app) vs [DM]; 25 °C, pH 7.5; read-out: Inhibition of CcO Oxidase Activity, Ki (DM→0)
PROPERTY: pKi
Entry type: numeric. Quantity: pKi, the -log10 of concentration in molar units.

pKi in this record for C[C@]12CC[C@@H]3c4ccc(OC(=O)c5ccccc5)cc4CC[C@H]3[C@@H]1CC[C@@H]2O [estradiol-3-benzoate] : 3.43

pKi in this record for C=C1CC[C@H](O)C/C1=C/C=C1\CCC[C@]2(C)[C@@H]([C@H](C)CCCC(C)C)CC[C@@H]12 [Cholecalciferol (vitamine D3), Cholecalciferol] : 5.05

pKi in this record for CC(=O)[C@H]1CC[C@H]2[C@@H]3CCC4=CC(=O)CC[C@]4(C)[C@H]3CC[C@]12C [Progesterone] : 3.92
